- System Under Test: T1, CRBN, Q96SW2;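 note: pooled lentiviral library of zinc finger degron-EGFP fusions in mCherry-positive Jurkat cells, FACS-sorted after compound exposure, with degron abundance counted by next-generation sequencing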
- T1 chain: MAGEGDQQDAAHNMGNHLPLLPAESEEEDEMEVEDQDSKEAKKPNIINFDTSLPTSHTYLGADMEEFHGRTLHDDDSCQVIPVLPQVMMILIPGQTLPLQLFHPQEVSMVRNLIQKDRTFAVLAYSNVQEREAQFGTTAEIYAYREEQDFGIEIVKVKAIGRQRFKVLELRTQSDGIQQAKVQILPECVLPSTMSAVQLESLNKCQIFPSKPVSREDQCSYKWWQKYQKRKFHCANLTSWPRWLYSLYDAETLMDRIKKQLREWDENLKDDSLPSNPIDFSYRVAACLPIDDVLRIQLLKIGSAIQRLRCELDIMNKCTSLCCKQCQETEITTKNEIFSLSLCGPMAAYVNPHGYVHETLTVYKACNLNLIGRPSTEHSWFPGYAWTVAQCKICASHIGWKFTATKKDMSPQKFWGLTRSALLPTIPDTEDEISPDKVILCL
- Assay Summary: log2 fold change of degron read counts, EGFP-low vs EGFP+ sorted cells (limma voom), compound-induced degradation; higher = more compound-induced degradation of the degron-EGFP fusion; degrons are variants of IKZF1/3 zinc finger 2; compound dose not given here
- Reported Conditions: Jurkat; 18 h; compound: compound 19 (5-tert-butyl-thalidomide)
In all, about 8,300 sequences were measured (“log2 fold change of degron read counts, EGFP-low vs EGFP+ sorted cells (limma voom), compound-induced degradation”: median about -1.1, highest 2% from about 3.2 on). The sample holds the highest values, similar sequences and a random draw of the others, so the mix is not that of the screen.
Measurement Type: log2 fold change of degron read counts

1) FRCPVCGAIFTQKGNLLRHIKL [46F_47R_49P_50V_52G_53A_54I_55F_67L_, Q9UKT9]: -1.67
2) LCCNQCGFFCTQKGNLLRHIKL [46L_47C_49N_50Q_52G_53F_54F_55C_67L_, Q9UKT9]: -1.18
3) FKCDICGAIFTQKGNLLRHIKL [46F_47K_49D_50I_52G_53A_54I_55F_67L_, Q9UKT9]: -2.93
4) FFCPVCGAIFTQKGNLLRHIKL [46F_47F_49P_50V_52G_53A_54I_55F_67L_, Q9UKT9]: 1.97
5) FKCDQCGAEFTQKGNLLRHIKL [46F_47K_49D_50Q_52G_53A_54E_55F_67L_, Q9UKT9]: -2.81
6) FVCDICGANFTQKGNLLRHIKL [46F_47V_49D_50I_52G_53A_54N_55F_67L_, Q9UKT9]: -0.564
7) FGCPVCGAIFTQKGNLLRHIKL [46F_47G_49P_50V_52G_53A_54I_55F_67L_, Q9UKT9]: 3.73
